Source: ChEMBL document CHEMBL1121754

test: Equilibrium constant for DNB complex formation; parameters: unit not given here
Measured quantity: KDNB
# output: bare number, no unit

Known results for compounds:
[
  {
    "Compound": "COc1ccc(CC(C)N)cc1 (stereo unspecified)",
    "KDNB": 1.02
  },
  {
    "Compound": "COc1cc(CC(C)N)cc(OC)c1OC (stereo unspecified)",
    "KDNB": 3.14
  },
  {
    "Compound": "COc1ccc(CC(C)N)c(OC)c1OC (stereo unspecified)",
    "KDNB": 1.7
  },
  {
    "Compound": "COc1cccc(OC)c1CC(C)N (stereo unspecified)",
    "KDNB": 1.49
  },
  {
    "Compound": "COc1ccc(CC(C)N)c(OC)c1 (stereo unspecified)",
    "KDNB": 1.32
  }
]

Let's switch to this compound now.
query: Look at this compound and give its reported KDNB. COc1cc(OC)c(OC)cc1CC(C)N (stereo unspecified)
result: 1.7
